# Tested on: MT4
# assay text: Ratio of CD50 to ID50 was determined
# Assay type: functional, Homo sapiens
experimental endpoint: IS

State the recorded IS for this entry: Cc1cn([C@H]2C=C[C@@H](CO)O2)c(=O)[nH]c1=O 1308

CCOP(=O)(OCC1C=CC(n2cc(C)c(=O)[nH]c2=O)O1)C(=O)NC (centres undefined) ? 6592

Entry Cc1cn([C@H]2C[C@H](N=[N+]=[N-])[C@@H](CO)O2)c(=O)[nH]c1=O please 11029

Again, but for CCOC(=O)CP(=O)(OCC1C=CC(n2cc(C)c(=O)[nH]c2=O)O1)OC1CCCCC1 (centres undefined) <13

Moving on to the next compound: CCOP(=O)(OCC1C=CC(n2cc(C)c(=O)[nH]c2=O)O1)C(N)=O (centres undefined) 7143

And what about the compound CCOP(=O)(OCC1C=CC(n2cc(C)c(=O)[nH]c2=O)O1)C(=O)NCCc1ccccc1 (centres undefined) ? 1555

Now the same for CCOP(=O)(OCC1OC(n2cc(C)c(=O)[nH]c2=O)CC1N=[N+]=[N-])C(=O)NC (centres undefined) 470416

CCOC(=O)CP(=O)(OCC)OCC1OC(n2cc(C)c(=O)[nH]c2=O)CC1N=[N+]=[N-] (centres undefined) ? >974

Queued: CCOP(=O)(OCC1OC(n2cc(C)c(=O)[nH]c2=O)CC1N=[N+]=[N-])C(N)=O (centres undefined) 124300

FYI, the data here is from ChEMBL document CHEMBL1149185.
